Test: Inhibition of potato 5LOX by enzyme immunoassay
Parameters: species or system Solanum tuberosum
Readings of IC50 for the listed compounds
Observed property: IC50 (µM)

Input smiles: NS(=O)(=O)c1ccc(-n2nc(C(F)(F)F)cc2-c2ccn(C(F)F)c(=O)c2)cc1
Observed property: IC50
Recorded result: 5
//
Input smiles: CS(=O)(=O)c1ccc(-n2nc(C(F)(F)F)cc2-c2ccnc(Cl)c2)cc1
Observed property: IC50
Recorded result: 0.47
//
Input smiles: NS(=O)(=O)c1ccc(-n2nc(C(F)(F)F)cc2-c2ccnc(Cl)c2)cc1
Observed property: IC50
Recorded result: 0.39
//
Input smiles: O=C(O)/C=C/c1ccc(O)c(O)c1
Observed property: IC50
Recorded result: 4
//
Input smiles: CS(=O)(=O)c1ccc(-n2nc(C(F)(F)F)cc2-c2ccn(C(F)F)c(=O)c2)cc1
Observed property: IC50
Recorded result: 4.4

====

Molecular target: Prostaglandin G/H synthase 1 (Bos taurus, UniProt O62664)
Sequence (O62664 whole entry): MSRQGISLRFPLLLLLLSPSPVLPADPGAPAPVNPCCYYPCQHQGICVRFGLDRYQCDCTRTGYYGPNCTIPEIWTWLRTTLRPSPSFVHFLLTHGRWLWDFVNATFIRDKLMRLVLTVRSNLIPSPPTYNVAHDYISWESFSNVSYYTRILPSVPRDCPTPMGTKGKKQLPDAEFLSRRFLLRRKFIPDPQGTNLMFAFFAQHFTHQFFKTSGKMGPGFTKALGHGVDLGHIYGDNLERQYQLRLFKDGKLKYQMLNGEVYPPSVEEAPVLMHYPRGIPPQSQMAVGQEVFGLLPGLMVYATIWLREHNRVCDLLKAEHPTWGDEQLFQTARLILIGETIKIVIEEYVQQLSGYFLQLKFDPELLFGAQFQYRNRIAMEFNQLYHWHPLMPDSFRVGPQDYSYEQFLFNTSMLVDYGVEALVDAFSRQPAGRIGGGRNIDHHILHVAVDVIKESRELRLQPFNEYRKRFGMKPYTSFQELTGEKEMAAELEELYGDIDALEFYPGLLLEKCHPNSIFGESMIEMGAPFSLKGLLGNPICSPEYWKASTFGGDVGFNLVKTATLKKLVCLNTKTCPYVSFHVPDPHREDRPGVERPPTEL
pIC50: −log10 of the molar value.

Input smiles: CS(=O)(=O)c1ccc(-n2nc(C(F)(F)F)cc2-c2ccn(C(F)F)c(=O)c2)cc1
Target of assay: Prostaglandin G/H synthase 1 (Bos taurus, UniProt O62664)
pIC50: 5.11
